Target: T1, human ASGR-1 mutant construct H203 (human, UniProt P07306 1-291)
T1 construct: Arg/Glu scanning: non-arginine residues were changed to arginine; Transiently expressed on CHO-S cells
T1 sequence: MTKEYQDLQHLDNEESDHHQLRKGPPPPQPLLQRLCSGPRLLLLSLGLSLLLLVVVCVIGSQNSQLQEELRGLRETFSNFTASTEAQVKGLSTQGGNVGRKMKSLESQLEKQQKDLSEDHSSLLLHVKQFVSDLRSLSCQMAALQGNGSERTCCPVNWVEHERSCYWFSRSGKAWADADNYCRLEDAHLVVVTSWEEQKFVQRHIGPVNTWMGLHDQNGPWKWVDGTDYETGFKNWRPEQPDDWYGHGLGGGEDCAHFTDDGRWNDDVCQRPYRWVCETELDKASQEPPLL
Experiment: FACS ratio: 65C12 geomean / this mAb geomean
Parameter measured: Expression Normalization to mAb 65C12
// return just the number, without any unit appended

Below: 4 binders and their reported Expression Normalization to mAb 65C12.
- Binder: "149D11 (antibody, V domains shown, mAb) VH: EVQLLESGGGLVQPGGSLRLSCAASGFTFSSYAMSWVRQAPGKGLEWVSAISGRGGNTFYADSVKGRFTISRDNSKNTLYRQMNSLRAEDTAVYYCAKKDYDYVWGSPYFDYWGQGTLVTVSS VL: DIQMTQSPASVSASVGDRVTITCRASQNISNWLTWYQQKPGKAPKLLIYAASSLQSGVPSRFSGSGSGTDFTLSISSLQPEDFATYYCQQTDSFPFTFGPGTKVDVK"
  Observed measurement: 2.91
- Binder: "53F7 (antibody, V domains shown, mAb) VH: QVQLVQSGAEVKKPGASVKVSCKASGYTFTGYHMHWVRQAPGQGLEWMGWINPNNNGTNYAQKFQGRVTMTRDTSISTAYMELNRLTSDDTAVYYCARDGTSSFDYWGQGTLVTVSS VL: DIQMSQSPSSVSASVGDRVTITCRASQGISRWLAWYQQKPGKAPNLLIYAASSLQSGVPSRFSGSGSGTDFTLTISSLQPEDFAIYYCQQANSFPFTFGPGTKVDIK"
  Observed measurement: 1.42
- Binder: "7E11 (antibody, V domains shown, mAb) VH: QVQLVESGGGVVQPGRSLRLSCAASGFTFSSFGMHWVRQAPGKGLEWVAIIWHDGSNKYYADSVKGRFTISRDNSNNTLYLQMSSLRAEDTAVYYCARDLSMGGMDVWGQGTTVTVSS VL: DIQMTQSPSSLSASVGDRVTIACRASQNIISYLNWYQQKPGKAPKFLIYTASSLQSGVPSRFSGSGSGTDFTLTISSLQPEDFAIYYCQQTYSTPLTFGGGTKVEIK"
  Observed measurement: 1.75
- Binder: "199A7 (antibody, V domains shown, mAb) VH: QVQLVESGGGVVQPGRSLRLSCAASGFTFSNYGMHWVRQAPGKGLEWVAIIWFDGSNKYYADSVKGRFTISRDNSKNTLFLQMSSLRAEDTAVYYCAREWLQFRYYYGMDVWGQGTTVTVSS VL: DIQMTQSPSSLSASVGDRVTITCRASQGIRKDLGWYQQKPGKAPKRLIYAASSLQSGVPSRFSGSGSGTEFTLTISSLQPEDFATYVCLQHYRYPFTFGPGTKVDFK"
  Observed measurement: 2.72

Now for another entry.
Input line: // Expression Normalization to mAb 65C12 lookup, key: 52H2 (antibody, V domains shown, mAb) VH: EVQLLESGGGLVQPGGSLRLSCAASGFTFSRNAMSWVRQAPGMGLEWVSAISGRGGNTFYADSVKGRFTVSRDNSKNTLFLQMNSLRAEDTAVYYCAKNGREQWLDYWGQGTLVTVSS VL: DIQMTQSPSSVSASVGDRVTITCRASQNITNWLAWFQQKPGRAPKLLIYTTSSLQSGVPSRFSGSGSGTDFTLTISSLQPEDFATYCCQQTNSFPWTFGHGTKVEVK
Output line: 1.38

Reference source for all entries: patent US20190248902A1
